Literature-derived Ki for Adenosine receptor A1 (Bos taurus) follows.
MEASUREMENT KIND: Ki (nM)

In the examples that follow, each entry is paired with its recorded Ki.
O=c1n(-c2cccc(F)c2)nc2c(NC3CCCCC3)nc3ccccc3n12
5.01
CC(C)OC(=O)c1cnc2c(cnn2CC(Cl)c2ccccc2)c1NCCc1cccc(Cl)c1 (stereo not given)
100

P. CCCOC(=O)c1cnc2c(cnn2CC(Cl)c2ccccc2)c1N1CCCC1 (stereo not given)
Q. Cc1cn2c(NC34C[C@H]5C[C@@H](C3)C[C@@H](C4)C5)nc(-c3ccccc3)nc2n1
R. COc1ccc(-n2cc3c(n2)c(N)nc2ccccc23)cc1
rank_up(items): orders items by reported Ki in ascending numerical order. When ranking, write the labels in the order the request describes.
R, Q, P
